Data credit: the COVID Moonshot data (paper PMC11187573)

# measurement_target: SARS-CoV-2 Main Protease (SARS-CoV-2)
# stated_conditions: 20.0 µM
Here, each record is paired with measured inhibition data.

>  <molecule>
C=CC(=O)N(c1ccc(C(C)(C)C)cc1)C(C(=O)NC(C)(C)C)c1cncc(C(C)(F)F)c1 (stereo unspecified)

>  <inhibition (%)>
-11.5

$$$$
>  <molecule>
NS(=O)(=O)c1ccc(N2CCC(N3CCCCCC3)CC2)cc1

>  <inhibition (%)>
-1.25

$$$$
>  <molecule>
CC(C)Cn1cc(NC(=O)NCc2ccc3c(c2)OCO3)c2ccccc2c1=O

>  <inhibition (%)>
15.3

$$$$
>  <molecule>
C=CC(=O)N(c1ccc(C(C)(C)C)cc1)C(C(=O)NC(C)C)c1cccnc1 (stereo unspecified)

>  <inhibition (%)>
-1.73

$$$$
>  <molecule>
C=CC(=O)N(c1ccc(C(C)OC)cc1)C(C(=O)Nc1ccccc1Br)c1cccnc1 (stereo unspecified)

>  <inhibition (%)>
3.04

$$$$
>  <molecule>
Cc1ccncc1NC(=O)Cc1cccc(C(N)=O)c1

>  <inhibition (%)>
2.66

$$$$
>  <molecule>
C=CC(=O)N(c1ccc(C(C)(C)C)cc1)C(C(=O)NCc1ccccc1)c1cccnc1 (stereo unspecified)

>  <inhibition (%)>
42.3

$$$$
>  <molecule>
Cc1ccncc1NC(=O)Cc1cccc(I)c1

>  <inhibition (%)>
17.4

$$$$
>  <molecule>
C=CC(=O)N(c1ccc(CC)c(I)c1)C(C(=O)NC(C)(C)C)c1cccnc1 (stereo unspecified)

>  <inhibition (%)>
15.2

$$$$
>  <molecule>
C=CC(=O)N(C1CCC2(CCCC2)C1)C(C(=O)NC(C)(C)C)c1cccnc1 (stereo unspecified)

>  <inhibition (%)>
5.22

$$$$
>  <molecule>
N#Cc1cccc(C2CN(C(=O)CCl)Cc3ccccc32)c1 (stereo unspecified)

>  <inhibition (%)>
98.8

$$$$
>  <molecule>
C=CC(=O)N(c1ccc(C(C)(C)C)cc1)C(C(=O)NC(C)(C)C)c1cnc[nH]1 (stereo unspecified)

>  <inhibition (%)>
-20.2

$$$$
>  <molecule>
O=C(NCC1COc2ccccc2O1)c1cc(=O)[nH]c2cc(F)ccc12 (stereo unspecified)

>  <inhibition (%)>
-0.372

$$$$
>  <molecule>
Cc1ccccc1C(C(=O)NCC(O)Cn1ccnn1)c1ccccc1 (stereo unspecified)

>  <inhibition (%)>
0.424

$$$$
>  <molecule>
C=CC(=O)N(C(CO)CC#CC)C(C(=O)NC(C)(C)C)c1cccnc1 (stereo unspecified)

>  <inhibition (%)>
-4.06

$$$$
>  <molecule>
C=CC(=O)N(c1ccc2c(ccn2C)c1)C(C(=O)NC(C)(C)C)c1cccnc1 (stereo unspecified)

>  <inhibition (%)>
-17.6

$$$$
>  <molecule>
C=CC(=O)N(c1ccc(C(C)(C)C)cc1)C(C(=O)NC(C)CC)c1cccnc1 (stereo unspecified)

>  <inhibition (%)>
16.8

$$$$
>  <molecule>
CC(C)Cn1cc(NC(=O)NC2CCCc3ccccc32)c2ccccc2c1=O (stereo unspecified)

>  <inhibition (%)>
26.4

$$$$
>  <molecule>
O=C(Nc1ccccc1Cl)c1cc(Cl)ccc1O

>  <inhibition (%)>
5.47

$$$$
>  <molecule>
O=S(=O)(Cc1ccccc1)Nc1cnccc1N1CCCC1

>  <inhibition (%)>
1.48

$$$$
>  <molecule>
COc1ccccc1OCCNC(=O)c1cc(=O)[nH]c2ccccc12

>  <inhibition (%)>
83.7

$$$$
